# targetDesc: R120E hDAAO variant (Homo sapiens, UniProt P14920, R120E)
# Construct: His-tag (N); made in house; host or cells: E. coli BL21 (DE3) Star
# Sequence (P14920 whole entry R120E): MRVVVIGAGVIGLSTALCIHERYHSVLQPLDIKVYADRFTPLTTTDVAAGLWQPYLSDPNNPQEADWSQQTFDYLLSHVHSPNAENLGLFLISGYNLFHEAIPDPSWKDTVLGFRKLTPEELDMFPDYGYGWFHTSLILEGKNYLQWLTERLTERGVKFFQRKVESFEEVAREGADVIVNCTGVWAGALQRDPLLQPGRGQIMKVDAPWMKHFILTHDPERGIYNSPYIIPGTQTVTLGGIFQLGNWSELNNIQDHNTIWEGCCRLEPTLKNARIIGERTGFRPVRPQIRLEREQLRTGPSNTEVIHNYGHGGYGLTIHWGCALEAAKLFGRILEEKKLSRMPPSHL
# assayRemarks: FAD and ligand binding by quenching of protein fluorescence, R120E hDAAO
# particulars: read-out: Kd for the second phase of binding
pKd: −log10 of the molar value.
outcomeMeasure: pKd

Entry O=C(O)c1ccccc1 [Benzoate, benzoate] has what pKd?
~2.10

###

# targetDesc: R120L hDAAO variant (Homo sapiens, UniProt P14920, R120L)
# Construct: His-tag (N); made in house; host or cells: E. coli BL21 (DE3) Star
# Sequence (P14920 whole entry R120L): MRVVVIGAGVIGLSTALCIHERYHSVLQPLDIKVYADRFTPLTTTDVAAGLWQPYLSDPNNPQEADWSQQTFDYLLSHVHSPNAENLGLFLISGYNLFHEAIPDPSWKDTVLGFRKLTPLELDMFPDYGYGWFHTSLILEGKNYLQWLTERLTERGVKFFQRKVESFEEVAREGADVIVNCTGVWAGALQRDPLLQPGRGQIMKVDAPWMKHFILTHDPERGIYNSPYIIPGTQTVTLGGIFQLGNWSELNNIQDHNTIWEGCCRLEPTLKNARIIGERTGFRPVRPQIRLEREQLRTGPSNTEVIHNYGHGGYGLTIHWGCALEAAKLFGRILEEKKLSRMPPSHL
# assayRemarks: FAD and ligand binding by quenching of protein fluorescence, R120L hDAAO
# particulars: apoprotein, no benzoate; read-out: FAD Kd, free form, second saturation phase
# Protocol: Protein fluorescence spectra were recorded between 300 and 400 nm, with excitation at 280 nm using a Jasco FP-750 instrument (excitation slit of 10 nm; emission slit of 5 nm) in 10 mM potassium phosphate, pH 8.0, 1% (v/v) glycerol, 5 mM 2-mercaptoethanol, […]
outcomeMeasure: Kd (µM)
Number in µM, nothing else.

Entry Cc1cc2nc3c(=O)[nH]c(=O)nc-3n(C[C@H](O)[C@H](O)[C@H](O)COP(=O)(O)OP(=O)(O)OC[C@H]3O[C@@H](n4cnc5c(N)ncnc54)[C@H](O)[C@@H]3O)c2cc1C [FAD] has what Kd?
23.1
